# System: Zymoseptoria tritici
# test protocol: Test E: wheat leaf blotch, preventive spray on wheat seedlings
# condition set: 10 ppm test solution; 100 = 100% disease control, 0 = no control relative to controls
Quick rule for you: Test E disease control rating under 2% gets Met, anything else gets Not met.

compound="CC(C)(C)C(O)(Cn1cnnn1)C1=NOC(COc2ccc(Cl)cc2)C1 (stereo not drawn) [Compound 247]" class="Not met"
compound="CC1(C(O)(Cn2cncn2)C2=NOC(COc3ccc(Br)cc3)C2)CC1 (single isomer, unassigned) [Compound 239]" class=Met
compound="CC1(C(O)(Cn2cncn2)C2=NOC(COc3ccc(Cl)cc3)C2)CC1 (single isomer, unassigned) [Compound 225]" class=Met
compound="CC(C)(C)C(O)(Cn1cnnn1)C1=NOC(COc2ccc(Cl)cc2)C1 (stereo not drawn) [Compound 246]" class=Met
compound="OC(Cn1cncn1)(C1=NOC2c3ccccc3CCC12)c1ccc(Cl)cc1 (stereo not drawn) [Compound 223]" class="Not met"
compound="CC(C)(C)CC(O)(Cn1cncn1)C1=NOC(COc2ccc(C(F)(F)F)cc2)C1 (single isomer, unassigned) [Compound 240]" class=Met
compound="OC(Cn1cncn1)(C1=NOC(COc2ccc(Cl)cc2)C1)C1(Cl)CC1 (single isomer, unassigned) [Compound 251]" class="Not met"
compound="OC(Cn1cncn1)(Cn1cncn1)C1=NOC(COc2ccc(Cl)cc2)C1 (stereo not drawn) [Compound 248]" class=Met
compound="OC(Cn1cncn1)(C1=NOC2c3ccccc3CCC12)c1ccc(Cl)cc1 (stereo not drawn) [Compound 222]" class="Not met"
compound="CC(C)(C)C(O)(Cn1cncn1)C1=NOC(COc2cccc(Cl)c2)C1 (single isomer, unassigned) [Compound 230]" class="Not met"
compound="CC(C)(C)C(O)(Cn1cncn1)C1=NOC(COc2ccc(Cl)cc2Cl)C1 (single isomer, unassigned) [Compound 255]" class=Met
compound="CC(C)(C)CC(O)(Cn1cncn1)C1=NOC(Cc2ccc(C(F)(F)F)cc2)C1 (single isomer, unassigned) [Compound 226]" class=Met
compound="CC1(COc2ccc(Cl)cc2)CC(C(O)(Cn2cncn2)C(C)(C)C)=NO1 (single isomer, unassigned) [Compound 216]" class=Met
compound="CC1(C(O)(Cn2cncn2)C2=NOC(COc3ccc(Br)cc3)C2)CC1 (single isomer, unassigned) [Compound 238]" class=Met

----------
# System: Erysiphe graminis f sp. tritici
# test protocol: Test G: wheat powdery mildew, preventive spray on wheat seedlings
# condition set: 10 ppm; wheat powdery mildew; 100 = 100% disease control, 0 = no control
quantity kind: Test G rating (% disease control) (%)

compound="OC(Cn1cncn1)(C1=NOC(Cn2ccc(C(F)(F)F)n2)C1)c1ccc(Cl)cc1 (single isomer, unassigned) [Compound 195]" measured_on="Erysiphe graminis f sp. tritici" quantity_kind="Test G rating (% disease control)" value_unit=% obs_value=100
compound="CC(C)(C)C(O)(Cn1cncn1)C1=NOC(c2ccc(-n3cc(Br)cn3)cc2)C1 (single isomer, unassigned) [Compound 8]" measured_on="Erysiphe graminis f sp. tritici" quantity_kind="Test G rating (% disease control)" value_unit=% obs_value=100
compound="OC(Cn1cncn1)(C1=NOC(Cc2ccc(C(F)(F)F)cc2)C1)c1ccc(Cl)cc1 (single isomer, unassigned) [Compound 203]" measured_on="Erysiphe graminis f sp. tritici" quantity_kind="Test G rating (% disease control)" value_unit=% obs_value=99
compound="CSc1ccc(C2CC(C(O)(Cn3cncn3)c3ccc(Cl)cc3)=NO2)cc1 (single isomer, unassigned) [Compound 107]" measured_on="Erysiphe graminis f sp. tritici" quantity_kind="Test G rating (% disease control)" value_unit=% obs_value=99
compound="OC(Cn1cncn1)(C1=NOC(Cc2ccc(-c3ccccc3)cc2)C1)c1ccc(Cl)cc1 (single isomer, unassigned) [Compound 204]" measured_on="Erysiphe graminis f sp. tritici" quantity_kind="Test G rating (% disease control)" value_unit=% obs_value=99
compound="OC(Cn1cncn1)(C1=NOC(COc2ccccc2)C1)c1ccc(Cl)cc1 (single isomer, unassigned) [Compound 145]" measured_on="Erysiphe graminis f sp. tritici" quantity_kind="Test G rating (% disease control)" value_unit=% obs_value=88

----------
# Test system: Erysiphe graminis f sp. tritici
# test protocol: Test G: wheat powdery mildew, preventive spray on wheat seedlings
# condition set: 10 ppm; wheat powdery mildew; 100 = 100% disease control, 0 = no control
Catalogue of molecules with associated Test G rating (% disease control)
quantity kind: Test G rating (% disease control) (%)

molecule="OC(Cn1cncn1)(C1=NOC(Cn2ccc(-c3ccc(C(F)(F)F)cc3)n2)C1)c1ccc(Cl)cc1 (single isomer, unassigned) [Compound 68]" measured_on="Erysiphe graminis f sp. tritici" obs_value=95
molecule="OC(Cn1cncn1)(C1=NOC(c2ccc(Oc3ccccc3)cc2)C1)c1ccc(Cl)cc1 (single isomer, unassigned) [Compound 142]" measured_on="Erysiphe graminis f sp. tritici" obs_value=99
molecule="CC(C)(C)CC(O)(Cn1cncn1)C1=NOC(Cc2ccc(Cl)cc2)C1 (single isomer, unassigned) [Compound 207]" measured_on="Erysiphe graminis f sp. tritici" obs_value=100
molecule="OC(Cn1cncn1)(C1=NOC(c2cccc(Oc3ccccc3)c2)C1)c1ccc(Cl)cc1 (single isomer, unassigned) [Compound 177]" measured_on="Erysiphe graminis f sp. tritici" obs_value=89
molecule="OC(Cn1cncn1)(C1=NOC(Cn2cc(Br)cn2)C1)c1ccc(Cl)cc1 (single isomer, unassigned) [Compound 38]" measured_on="Erysiphe graminis f sp. tritici" obs_value=72
molecule="OC(Cn1cncn1)(C1=NOC(c2ccc(C(F)(F)F)cc2)C1)c1ccc(C(F)(F)F)cc1 (single isomer, unassigned) [Compound 154]" measured_on="Erysiphe graminis f sp. tritici" obs_value=83
molecule="CC(C)(C)C(O)(Cn1cncn1)C1=NOC(Cn2cc(Br)cn2)C1 (single isomer, unassigned) [Compound 41]" measured_on="Erysiphe graminis f sp. tritici" obs_value=90
molecule="CC(C)(C)C(O)(Cn1cncn1)C1=NOC(CO[Si](C)(C)C(C)(C)C)C1 (single isomer, unassigned) [Compound 10]" measured_on="Erysiphe graminis f sp. tritici" obs_value=13
molecule="OC(Cn1cncn1)(C1=NOC(Cc2ccc(C(F)(F)F)cc2)C1)c1ccc(Cl)cc1 (single isomer, unassigned) [Compound 202]" measured_on="Erysiphe graminis f sp. tritici" obs_value=99
molecule="OC(Cn1cncn1)(C1=NOC(c2cnccn2)C1)c1ccc(Cl)cc1 (single isomer, unassigned)" measured_on="Erysiphe graminis f sp. tritici" obs_value=26
molecule="OC(Cn1cncn1)(C1=NOC(COc2ccc(OCc3ccccc3)cc2)C1)c1ccc(Cl)cc1 (single isomer, unassigned) [Compound 70]" measured_on="Erysiphe graminis f sp. tritici" obs_value=76
molecule="OC(Cn1cncn1)(C1=NOC(CSc2ccccc2)C1)c1ccc(Cl)cc1 (single isomer, unassigned) [Compound 51]" measured_on="Erysiphe graminis f sp. tritici" obs_value=81
molecule="CC(C)C(O)(Cn1cncn1)C1=NOC(c2ccc(Cl)cc2)C1 (single isomer, unassigned) [Compound 4]" measured_on="Erysiphe graminis f sp. tritici" obs_value=99
molecule="OC(Cn1cncn1)(C1=NOC(c2ccc(Cl)cc2)C1)c1ccccc1Cl (single isomer, unassigned) [Compound 150]" measured_on="Erysiphe graminis f sp. tritici" obs_value=99
molecule="OC(Cn1cncn1)(C1=NOC(c2ccc(-n3cncn3)cc2)C1)c1ccc(Cl)cc1 (mixture of isomers)" measured_on="Erysiphe graminis f sp. tritici" obs_value=99
molecule="CC#CC(O)(Cn1cncn1)C1=NOC(c2ccc(Cl)cc2)C1 (centres unmarked) [Compound 104]" measured_on="Erysiphe graminis f sp. tritici" obs_value=93
molecule="CC(C)(C)C(O)(Cn1cncn1)C1=NOC(COC2CCCCC2)C1 (single isomer, unassigned) [Compound 91]" measured_on="Erysiphe graminis f sp. tritici" obs_value=56
molecule="CC(C)(C)C(O)(Cn1cncn1)C1=NOC(c2cnccn2)C1 (single isomer, unassigned) [Compound 168]" measured_on="Erysiphe graminis f sp. tritici" obs_value=35
molecule="OC(Cn1cncn1)(C1=NOC(c2ccc(Cl)cc2)C1)c1ccc(F)cc1 (single isomer, unassigned) [Compound 161]" measured_on="Erysiphe graminis f sp. tritici" obs_value=94
molecule="OC(Cc1ccc(Cl)cc1)(Cn1cncn1)C1=NOC(c2ccc(Cl)cc2)C1 (single isomer, unassigned) [Compound 93]" measured_on="Erysiphe graminis f sp. tritici" obs_value=100
molecule="OC(Cn1cncn1)(C1=NOC(c2ccc(F)cc2)C1)c1ccc(Cl)cc1 (single isomer, unassigned) [Compound 159]" measured_on="Erysiphe graminis f sp. tritici" obs_value=97
molecule="OC(Cn1cncn1)(C1=NOC(c2ccc(Cl)cc2)C1)c1ccc(C(F)(F)F)cc1 (single isomer, unassigned) [Compound 105]" measured_on="Erysiphe graminis f sp. tritici" obs_value=99
molecule="CC(C)(C)C(O)(Cn1cncn1)C1=NOC(CCOc2ccc(Cl)cc2)C1 (single isomer, unassigned) [Compound 209]" measured_on="Erysiphe graminis f sp. tritici" obs_value=100
molecule="OC(Cn1cncn1)(C1=NOC(COCc2ccccc2)C1)c1ccc(Cl)cc1 (single isomer, unassigned) [Compound 58]" measured_on="Erysiphe graminis f sp. tritici" obs_value=68
molecule="OC(Cn1cncn1)(C1=NOC(Cn2ccc(-c3ccc(Cl)cc3)n2)C1)c1ccc(Cl)cc1 (single isomer, unassigned) [Compound 66]" measured_on="Erysiphe graminis f sp. tritici" obs_value=97
molecule="CC(C)(C)C(O)(Cn1cncn1)C1=NOC(Cc2ccccc2)C1 (single isomer, unassigned) [Compound 86]" measured_on="Erysiphe graminis f sp. tritici" obs_value=98
